Experiment: Metabolic stability in human plasma assessed as compound remaining at 5 uM incubated for 120 mins by ECHO-MS analysis
Format: ADME, cell-free
Conditions: read-out: Stability
Listing of entries alongside the reported remaining at 2 h, 5 µM.
measuredMetric: remaining at 2 h, 5 µM (%)

[[record]]
structuresmilesstring = "Cn1cccc1-c1cc2c(Nc3ccc4scnc4c3)ncnc2cc1-c1cccc(CO)c1"
measuredmetric = "remaining at 2 h, 5 µM"
unitssymbol = "%"
testvalue = 112

[[record]]
structuresmilesstring = "Cc1ccsc1-c1cc2c(Nc3ccc4scnc4c3)ncnc2cc1-c1cccc(CO)c1"
measuredmetric = "remaining at 2 h, 5 µM"
unitssymbol = "%"
testvalue = 113

[[record]]
structuresmilesstring = "C1=C(c2cc3ncnc(Nc4ccc5scnc5c4)c3cc2-c2cccs2)COC1"
measuredmetric = "remaining at 2 h, 5 µM"
unitssymbol = "%"
testvalue = 107

[[record]]
structuresmilesstring = "CC(C)[N+](C)(CCOC(=O)C1c2ccccc2Oc2ccccc21)C(C)C"
measuredmetric = "remaining at 2 h, 5 µM"
unitssymbol = "%"
testvalue = 2

[[record]]
structuresmilesstring = "OCc1ccc(-c2cc3ncnc(Nc4ccc5scnc5c4)c3cc2-c2cccs2)o1"
measuredmetric = "remaining at 2 h, 5 µM"
unitssymbol = "%"
testvalue = 108


====

Target: Receptor-interacting serine/threonine-protein kinase 2 (Homo sapiens)
Experiment: Inhibition of N-terminal polyHis-tagged human RIPK2 (8 to 310 residues) expressed in Sf9 cells using MBP as substrate preincubated for 15 mins followed by ATP addition measured after 90 mins by ADP-Glo assay
pIC50: −log10 of the molar value.
// label = satisfied if pIC50 is not less than 8, otherwise not satisfied

[[record]]
structuresmilesstring = "COc1cccc(-c2ccc3ncnc(Nc4ccc5scnc5c4)c3c2)n1"
categorylabel = "not satisfied"

[[record]]
structuresmilesstring = "Cc1ccsc1-c1cc2c(Nc3ccc4scnc4c3)ncnc2cc1-c1cccc(CO)c1"
categorylabel = "satisfied"

[[record]]
structuresmilesstring = "Cc1ccsc1-c1cc2c(Nc3ccc4scnc4c3)ncnc2cc1Cl"
categorylabel = "not satisfied"

[[record]]
structuresmilesstring = "Cc1cscc1-c1cc2c(Nc3ccc4scnc4c3)ncnc2cc1Cl"
categorylabel = "not satisfied"

[[record]]
structuresmilesstring = "Cc1cscc1-c1ccc2ncnc(Nc3ccc4scnc4c3)c2c1"
categorylabel = "not satisfied"

[[record]]
structuresmilesstring = "CC(C)(C)S(=O)(=O)c1cc2c(Nc3ccc4scnc4c3)ncnc2cc1OCCOP(=O)(O)O"
categorylabel = "satisfied"

[[record]]
structuresmilesstring = "C1=C(c2cc3ncnc(Nc4ccc5scnc5c4)c3cc2-c2cccs2)COC1"
categorylabel = "satisfied"

[[record]]
structuresmilesstring = "OCc1ccc(-c2cc3ncnc(Nc4ccc5scnc5c4)c3cc2-c2cccs2)o1"
categorylabel = "satisfied"

[[record]]
structuresmilesstring = "c1csc(-c2ccc3ncnc(Nc4ccc5scnc5c4)c3c2)c1"
categorylabel = "satisfied"

[[record]]
structuresmilesstring = "Cc1ncc(-c2ccc3ncnc(Nc4ccc5scnc5c4)c3c2)s1"
categorylabel = "satisfied"

[[record]]
structuresmilesstring = "Cn1cccc1-c1cc2c(Nc3ccc4scnc4c3)ncnc2cc1-c1cccc(CO)c1"
categorylabel = "satisfied"

[[record]]
structuresmilesstring = "c1ccc(-c2ccc3ncnc(Nc4ccc5scnc5c4)c3c2)cc1"
categorylabel = "not satisfied"

[[record]]
structuresmilesstring = "Cn1cccc1-c1ccc2ncnc(Nc3ccc4scnc4c3)c2c1"
categorylabel = "not satisfied"

[[record]]
structuresmilesstring = "Cn1cc(-c2ccc3ncnc(Nc4ccc5scnc5c4)c3c2)cn1"
categorylabel = "satisfied"

[[record]]
structuresmilesstring = "Cc1ncc(-c2cc3c(Nc4ccc5scnc5c4)ncnc3cc2Cl)s1"
categorylabel = "satisfied"

[[record]]
structuresmilesstring = "Cn1nc(C(F)(F)F)cc1-c1cc2c(Nc3ccc4scnc4c3)ncnc2cc1Cl"
categorylabel = "not satisfied"


====

Listing of entries alongside the reported pIC50.
Biological target: Receptor-interacting serine/threonine-protein kinase 2 (Homo sapiens)
Experiment: Inhibition of N-terminal polyHis-tagged human RIPK2 (8 to 310 residues) expressed in Sf9 cells using MBP as substrate preincubated for 15 mins followed by ATP addition measured after 90 mins by ADP-Glo assay
pIC50: −log10 of the molar value.
measuredMetric: pIC50

[[record]]
structuresmilesstring = "Cn1ccnc1-c1cc2c(Nc3ccc4scnc4c3)ncnc2cc1Cl"
testvalue = 8.52

[[record]]
structuresmilesstring = "CC(C)S(=O)(=O)c1ccc2nccc(Nc3ccc4scnc4c3)c2c1"
testvalue = 8.70

[[record]]
structuresmilesstring = "Cn1cncc1-c1ccc2ncnc(Nc3ccc4scnc4c3)c2c1"
testvalue = 8.40


====

Listing of entries alongside the reported remaining at 0.75 h, 10 µM.
Assay: Metabolic stability in mouse liver microsomes assessed as compound remaining at 10 uM incubated for 45 mins by ECHO-MS analysis
Format: ADME, Microsome
Conditions: read-out: Stability
measuredMetric: remaining at 0.75 h, 10 µM (%)

[[record]]
structuresmilesstring = "C1=C(c2cc3ncnc(Nc4ccc5scnc5c4)c3cc2-c2cccs2)COC1"
unitssymbol = "%"
testvalue = 94

[[record]]
structuresmilesstring = "Cn1cncc1-c1cc2c(Nc3ccc4scnc4c3)ncnc2cc1Cl"
unitssymbol = "%"
testvalue = 105

[[record]]
structuresmilesstring = "Cn1ccnc1-c1cc2c(Nc3ccc4scnc4c3)ncnc2cc1Cl"
unitssymbol = "%"
testvalue = 115

[[record]]
structuresmilesstring = "Cc1ccsc1-c1cc2c(Nc3ccc4scnc4c3)ncnc2cc1-c1cccc(CO)c1"
unitssymbol = "%"
testvalue = 118

[[record]]
structuresmilesstring = "Cn1cncc1-c1ccc2ncnc(Nc3ccc4scnc4c3)c2c1"
unitssymbol = "%"
testvalue = 118

[[record]]
structuresmilesstring = "OCc1ccc(-c2cc3ncnc(Nc4ccc5scnc5c4)c3cc2-c2cccs2)o1"
unitssymbol = "%"
testvalue = 114

[[record]]
structuresmilesstring = "Cn1cccc1-c1cc2c(Nc3ccc4scnc4c3)ncnc2cc1-c1cccc(CO)c1"
unitssymbol = "%"
testvalue = 93


====

Molecular target: Receptor-interacting serine/threonine-protein kinase 2 (Homo sapiens)
Test: Inhibition of RIPK2-mediated NF-kappaB signalling in MDP-treated human THP-1 cells preincubated for 30 mins followed by MDP addition measured after 24 hrs by luminescence based assay
Assay type: cell-based
Listing of entries alongside the reported IC50.
measuredMetric: IC50

[[record]]
structuresmilesstring = "c1csc(-c2ccc3ncnc(Nc4ccc5scnc5c4)c3c2)c1"
measuredmetric = "IC50"
testvalue = "120 nM"

[[record]]
structuresmilesstring = "Cc1ncc(-c2ccc3ncnc(Nc4ccc5scnc5c4)c3c2)n1C"
measuredmetric = "IC50"
testvalue = "240 nM"

[[record]]
structuresmilesstring = "Cn1cnc(-c2cc3c(Nc4ccc5scnc5c4)ncnc3cc2Cl)c1"
measuredmetric = "IC50"
testvalue = "140 nM"

[[record]]
structuresmilesstring = "Cc1ccsc1-c1ccc2ncnc(Nc3ccc4scnc4c3)c2c1"
measuredmetric = "IC50"
testvalue = "362 nM"

[[record]]
structuresmilesstring = "Cc1cscc1-c1cc2c(Nc3ccc4scnc4c3)ncnc2cc1Cl"
measuredmetric = "IC50"
testvalue = "2080 nM"

[[record]]
structuresmilesstring = "Cn1cncc1-c1cc2c(Nc3ccc4scnc4c3)ncnc2cc1Cl"
measuredmetric = "IC50"
testvalue = "54 nM"


====

Target: Receptor-interacting serine/threonine-protein kinase 2 (Homo sapiens, UniProt O43353)
Sequence (O43353 whole entry, the tested form may be a part): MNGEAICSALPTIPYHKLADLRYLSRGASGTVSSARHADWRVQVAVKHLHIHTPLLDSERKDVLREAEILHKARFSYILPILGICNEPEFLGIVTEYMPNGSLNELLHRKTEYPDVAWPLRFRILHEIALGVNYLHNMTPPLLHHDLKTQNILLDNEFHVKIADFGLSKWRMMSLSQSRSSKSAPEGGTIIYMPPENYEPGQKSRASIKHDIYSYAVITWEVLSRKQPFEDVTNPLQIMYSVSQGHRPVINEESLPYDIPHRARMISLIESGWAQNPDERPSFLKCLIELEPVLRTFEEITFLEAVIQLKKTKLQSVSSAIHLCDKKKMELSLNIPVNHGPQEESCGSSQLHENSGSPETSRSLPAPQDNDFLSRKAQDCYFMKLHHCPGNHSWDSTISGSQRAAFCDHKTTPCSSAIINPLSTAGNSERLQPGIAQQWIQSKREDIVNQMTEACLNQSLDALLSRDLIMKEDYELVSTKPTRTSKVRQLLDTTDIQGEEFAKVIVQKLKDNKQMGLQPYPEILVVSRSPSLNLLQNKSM
Test: Inhibition of RIPK2-mediated NF-kappaB signalling in C14-TriLAN-Gly-treated human THP-1 cells preincubated for 30 mins followed by C14-TriLAN-Gly addition measured after 24 hrs by luminescence based assay
Type: cell-based
Listing of entries alongside the reported IC50.
measuredMetric: IC50 (nM)

[[record]]
structuresmilesstring = "Cn1nccc1-c1cc2c(Nc3ccc4scnc4c3)ncnc2cc1Cl"
unitssymbol = "nM"
testvalue = 313

[[record]]
structuresmilesstring = "Cn1cncc1-c1ccc2ncnc(Nc3ccc4scnc4c3)c2c1"
unitssymbol = "nM"
testvalue = 119

[[record]]
structuresmilesstring = "OCc1cccc(-c2cc3ncnc(Nc4ccc5scnc5c4)c3cc2-c2cccs2)c1"
unitssymbol = "nM"
testvalue = 432

[[record]]
structuresmilesstring = "OCc1ccc(-c2cc3ncnc(Nc4ccc5scnc5c4)c3cc2-c2cccs2)o1"
unitssymbol = "nM"
testvalue = 14

[[record]]
structuresmilesstring = "Cc1ncc(-c2cc3c(Nc4ccc5scnc5c4)ncnc3cc2Cl)s1"
unitssymbol = "nM"
testvalue = 156

[[record]]
structuresmilesstring = "Clc1cc2ncnc(Nc3ccc4scnc4c3)c2cc1-c1cc[nH]n1"
unitssymbol = "nM"
testvalue = 155

[[record]]
structuresmilesstring = "Cn1cccc1-c1ccc2ncnc(Nc3ccc4scnc4c3)c2c1"
unitssymbol = "nM"
testvalue = 726

[[record]]
structuresmilesstring = "Cc1csc(-c2ccc3ncnc(Nc4ccc5scnc5c4)c3c2)n1"
unitssymbol = "nM"
testvalue = 2750

[[record]]
structuresmilesstring = "Cn1cc(-c2ccc3ncnc(Nc4ccc5scnc5c4)c3c2)cn1"
unitssymbol = "nM"
testvalue = 47

[[record]]
structuresmilesstring = "Cc1cscc1-c1ccc2ncnc(Nc3ccc4scnc4c3)c2c1"
unitssymbol = "nM"
testvalue = 4430

[[record]]
structuresmilesstring = "Cc1ncc(-c2ccc3ncnc(Nc4ccc5scnc5c4)c3c2)n1C"
unitssymbol = "nM"
testvalue = 143

[[record]]
structuresmilesstring = "Cc1ccsc1-c1ccc2ncnc(Nc3ccc4scnc4c3)c2c1"
unitssymbol = "nM"
testvalue = 438

[[record]]
structuresmilesstring = "C1=C(c2cc3ncnc(Nc4ccc5scnc5c4)c3cc2-c2cccs2)COC1"
unitssymbol = "nM"
testvalue = 51

[[record]]
structuresmilesstring = "Cc1ncc(-c2cc3c(Nc4ccc5scnc5c4)ncnc3cc2Cl)n1C"
unitssymbol = "nM"
testvalue = 189

[[record]]
structuresmilesstring = "Cn1cncc1-c1cc2c(Nc3ccc4scnc4c3)ncnc2cc1Cl"
unitssymbol = "nM"
testvalue = 146

[[record]]
structuresmilesstring = "Cn1ccnc1-c1cc2c(Nc3ccc4scnc4c3)ncnc2cc1Cl"
unitssymbol = "nM"
testvalue = 183

[[record]]
structuresmilesstring = "Cn1ccnc1-c1ccc2ncnc(Nc3ccc4scnc4c3)c2c1"
unitssymbol = "nM"
testvalue = 239

[[record]]
structuresmilesstring = "Cn1nc(C(F)(F)F)cc1-c1cc2c(Nc3ccc4scnc4c3)ncnc2cc1Cl"
unitssymbol = "nM"
testvalue = 4570

[[record]]
structuresmilesstring = "Cc1ccsc1-c1cc2c(Nc3ccc4scnc4c3)ncnc2cc1-c1cccc(CO)c1"
unitssymbol = "nM"
testvalue = 225

[[record]]
structuresmilesstring = "Cn1cccc1-c1cc2c(Nc3ccc4scnc4c3)ncnc2cc1-c1cccc(CO)c1"
unitssymbol = "nM"
testvalue = 119

[[record]]
structuresmilesstring = "CC(C)(C)S(=O)(=O)c1cc2c(Nc3ccc4scnc4c3)ncnc2cc1OCCOP(=O)(O)O"
unitssymbol = "nM"
testvalue = 92

[[record]]
structuresmilesstring = "Cn1cnc(-c2ccc3ncnc(Nc4ccc5scnc5c4)c3c2)c1"
unitssymbol = "nM"
testvalue = 209

